# target: recombinant human FLAP protein (Homo sapiens, UniProt P20292)
# Sequence (P20292 1-161): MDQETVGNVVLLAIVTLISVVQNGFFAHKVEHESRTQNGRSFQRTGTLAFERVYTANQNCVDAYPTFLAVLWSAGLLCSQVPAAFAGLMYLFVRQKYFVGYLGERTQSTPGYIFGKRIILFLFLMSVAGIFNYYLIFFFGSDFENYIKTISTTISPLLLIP
# test: FLAP binding assay (Scintillation Proximity Assay, displacement of [125I]L-691,831)
# cond: recombinant human FLAP membranes, [125I]L-691,831 probe; read-out: FLAP SPA IC50
resultType: pIC50
Scale note: pIC50 = -log10(concentration in M).

Answered examples (2):
In: Let me know recorded pIC50 for "Nc1ncc(-c2ccc(C3(c4noc(-c5cnn(C6COC6)c5)n4)CC3)cc2)cn1" , thanks.
Out: 6.82

In: Let me know recorded pIC50 for "Nc1ncc(-c2ccc(C3(c4noc(-c5cncnc5)n4)CCC3)cc2)cn1" , thanks.
Out: 8.22

***
In: Let me know recorded pIC50 for "COCCN(C)c1cnc(-c2nc(C3(c4ccc(-c5cnc(N)nc5)cc4)CCC3)no2)cn1" , thanks.
Out: 8.70

In: Let me know recorded pIC50 for "COC(=O)c1ccc(-c2nc(C3(c4ccc(-c5cnc(N)nc5)cc4)CCC3)no2)cn1" , thanks.
Out: 8.54

In: Let me know recorded pIC50 for COC(=O)[C@@H]1CN(c2cnc(-c3nc(C4(c5ccc(-c6cnc(N)nc6)cc5)CCC4)no3)cn2)CCN1 [Example 126] , thanks.
Out: 8.24
